Please go through the items and note down their fold change (FC).
assay: Stability in simulated intestinal fluid at pH 6.8 assessed as relative difference measured after 15 mins in presence of pancreatin by HPLC analysis
Assay type: ADME
studyConditions: simulated gi fluid, pH 6.8, 0.25 h
Numeric answer plus unit only.

Q: Tell me the measured fold change (FC) of O=C(CCCCC1CCSS1)NCCNC(=O)Cc1ccc(O)c(O)c1 (stereo not drawn) , please.
A: 1.89%

Q: Tell me the measured fold change (FC) of O=C(CCCCC1CCSS1)NCCCCNC(=O)Cc1ccc(O)c(O)c1 (stereo not drawn) , please.
A: 1.5%

Q: Tell me the measured fold change (FC) of COc1ccc(CC(=O)NCCCNC(=O)CCCCC2CCSS2)cc1OC (stereo not drawn) , please.
A: 0.45%

Reference for the values: ChEMBL document CHEMBL4680120
